Test system: SK-MEL-2 melanoma
test_description: NCI tumour cell line growth inhibition, 48 h
endpoint_label: TGI

Guide cases for TGI, answers given:
given_smiles: CC(=O)N[C@H]1CSSC[C@@H](C(N)=O)NC(=O)[C@H](C(C)C)NC(=O)[C@H](C)NC(=O)[C@H](Cc2cnc[nH]2)NC1=O
endpoint_label: TGI
experimental_result: > 100 µM
//
given_smiles: Cn1c2ccccc2c(=O)c2ccc(Cl)cc21
endpoint_label: TGI
experimental_result: > 10 µM
//
given_smiles: COc1ccc2c(cnc3c4cc(OC)c(OC)cc4ccc23)c1
endpoint_label: TGI
experimental_result: > 100 µM

Q: Notebook: pull reported TGI for SK-MEL-2 melanoma, entry CC1=C[C@H]2c3c(c(O)c(O)c4oc(-c5ccccc5)cc(=O)c34)[C@H](c3cc(O)c(O)c4oc(-c5ccccc5)cc(=O)c34)[C@H]2C(C)(C)C1
Result: 9.61 µM
